biological target: human DLL3 protein expressed on CHO-K1 recombinant cells (human DLL3 extracellular segment fused to EpCAM transmembrane and intracellular regions) (human) (UniProt Q9NYJ7); assay: FACS, CHO-K1 hDLL3 cells, 0.00128 nM antibody
Sequence (Q9NYJ7 other isoform, or with tags, fused parts or gaps limits assumed): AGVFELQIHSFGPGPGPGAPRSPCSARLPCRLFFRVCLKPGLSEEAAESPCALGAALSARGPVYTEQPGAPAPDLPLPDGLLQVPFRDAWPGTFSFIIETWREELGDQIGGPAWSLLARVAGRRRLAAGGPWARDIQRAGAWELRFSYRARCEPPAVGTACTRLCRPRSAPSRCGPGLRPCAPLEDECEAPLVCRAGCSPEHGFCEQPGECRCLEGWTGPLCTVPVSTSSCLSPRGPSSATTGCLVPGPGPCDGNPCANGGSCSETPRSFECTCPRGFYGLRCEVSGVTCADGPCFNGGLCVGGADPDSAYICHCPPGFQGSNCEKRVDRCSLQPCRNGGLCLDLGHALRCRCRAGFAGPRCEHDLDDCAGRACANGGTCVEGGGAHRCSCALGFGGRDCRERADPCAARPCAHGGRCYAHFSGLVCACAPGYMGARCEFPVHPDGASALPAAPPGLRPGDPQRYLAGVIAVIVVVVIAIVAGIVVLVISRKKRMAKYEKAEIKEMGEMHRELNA
Property name: MFI
Note: a bare number is incomplete; add the unit.

Take a look at these entries with their results.
{"columns": ["Binder", "Result"],
 "data": [
  ["Hab006VL4VH2-hFc (scFv, part only; not given: scFv linker and human IgG1 Fc, V domains shown, not shown: another chain or arm of the molecule; a dimerising Fc or GST; small tags and cut ends) VL: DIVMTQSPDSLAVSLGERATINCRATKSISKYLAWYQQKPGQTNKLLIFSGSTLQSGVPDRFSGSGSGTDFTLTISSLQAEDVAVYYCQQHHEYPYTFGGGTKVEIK VH: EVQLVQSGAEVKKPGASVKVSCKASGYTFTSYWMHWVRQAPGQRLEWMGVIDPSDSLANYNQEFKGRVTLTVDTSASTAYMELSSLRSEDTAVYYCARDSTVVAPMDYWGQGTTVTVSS", "243 MFI"],
  ["Hab009VL3aVH1-hFc (Fc fusion, part only; not given: Linker and human IgG1 Fc, not shown: a dimerising Fc or GST) chain, part: DIVMTQSPLSLPVTPGEPASISCRASQTISDYLHWYLQKSHQSPQLLIKYASQSISGVPDRFSGSGSGTDFTLKISRVEAEDVGVYYCQQGHSFPLTFGQGTKLEIKEVQLVQSGAEVKKPGASVKVSCKASGYTFTSYWMHWVRQAPGQRLEWMGTIYPGNSDTRYNQKFKDRVTITADTSASTAYMELSSLRSEDTAVYYCTRSYDYGDLDYWGQGTTVTVSS", "204 MFI"]
]}

[in] Recorded MFI for Hab009VL2aVH1-hFc (scFv, part only; not given: VL-VH linker and human IgG1 Fc, V domains shown, not shown: another chain or arm of the molecule; a dimerising Fc or GST; small tags and cut ends) VL: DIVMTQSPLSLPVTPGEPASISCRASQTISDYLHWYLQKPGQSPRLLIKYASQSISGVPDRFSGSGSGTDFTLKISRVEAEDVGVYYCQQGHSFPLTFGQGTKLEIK VH: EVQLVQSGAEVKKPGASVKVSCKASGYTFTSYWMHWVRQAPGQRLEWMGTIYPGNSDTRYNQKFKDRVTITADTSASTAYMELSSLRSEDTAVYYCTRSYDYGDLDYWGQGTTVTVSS , please?
[out] 210 MFI

[in] What does the record list as MFI for Hab009VL1aVH1-hFc (scFv, part only; not given: scFv linker and human IgG1 Fc, V domains shown, not shown: another chain or arm of the molecule; a dimerising Fc or GST; small tags and cut ends) VL: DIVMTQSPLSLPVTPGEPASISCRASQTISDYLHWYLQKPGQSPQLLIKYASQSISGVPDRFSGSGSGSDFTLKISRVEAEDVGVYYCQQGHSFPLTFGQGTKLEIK VH: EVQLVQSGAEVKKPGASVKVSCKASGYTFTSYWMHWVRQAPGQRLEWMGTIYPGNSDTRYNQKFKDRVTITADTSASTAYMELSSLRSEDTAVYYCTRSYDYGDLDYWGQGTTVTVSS ?
[out] 199 MFI

[in] MFI lookup needed for Hab006VL4VH1-hFc (scFv, part only; not given: scFv linker and human IgG1 Fc, V domains shown, not shown: another chain or arm of the molecule; a dimerising Fc or GST; small tags and cut ends) VL: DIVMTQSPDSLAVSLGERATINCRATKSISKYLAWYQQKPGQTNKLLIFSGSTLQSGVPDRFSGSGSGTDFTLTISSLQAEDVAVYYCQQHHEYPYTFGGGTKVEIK VH: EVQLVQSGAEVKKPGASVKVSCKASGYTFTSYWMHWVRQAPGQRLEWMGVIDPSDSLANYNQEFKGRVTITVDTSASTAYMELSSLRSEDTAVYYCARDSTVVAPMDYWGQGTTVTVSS , thanks.
[out] 227 MFI
